Provenance of the data: patent US20260193293A1

Target: Sushi domains (SD1/2) protein
Test: Fluorescence polarization (FP) competition assay with AJAP-1probe, calculated Ki
Assay type: binding
Conditions: Table 8, in μM; read-out: Ki (nM) mean ± SEM
Non-standard residues stand in square brackets, D forms with d.

SUBSTANCE: ETEFlaWGPTGDED (Ac-ETEFI[dA]WGPTGDED-NH2)
TESTED ON: Sushi domains (SD1/2) protein
Ki: > 6.25 µM

====

Biological target: Sushi domains (SD1/2) protein
Assay: Fluorescence polarization (FP) competition assay with AJAP-1probe, calculated Ki
Type: binding
Settings: Table 9, Ala-, D-amino acids and N-methylation scans of PIANPWT; read-out: Ki (nM) mean ± SEM
Protocol: Fluorescence polarization (FP). FP assay was employed to determine the binding affinity of peptides in flat bottom black 384-well plates (Corning Life Science) using a Safire2 plate reader (Tecan). […] The fluorescence polarization values were measured using excitation/emission wavelengths of 530/580 nm. The instrumental Z-factor was adjusted to obtain the maximum fluorescence intensity and the G-factor was calibrated to give an initial millipolarization value of 20 mP. […]
Non-standard residues stand in square brackets, D forms with d. Residues, ends and D or L forms follow the SMILES beside them. NMeR = CN[C@@H](CCCNC(=N)N)C(=O)O; NMeI = CC[C@H](C)[C@H](NC)C(=O)O; NMeA = CN[C@@H](C)C(=O)O
Ki reference
ASSAY READOUT: Ki

COMPOUND: CC[C@H](C)[C@H](NC(=O)[C@H](C)NC(=O)[C@H](Cc1c[nH]c2ccccc12)NC(=O)[C@H](C)NC(C)=O)C(=O)N[C@H](C(=O)N[C@@H](Cc1c[nH]c2ccccc12)C(=O)NCC(=O)N1CCC[C@H]1C(=O)N[C@H](C(=O)N[C@H](C(=O)N[C@@H](CO)C(=O)N[C@@H](CCCNC(=N)N)C(=O)N[C@@H](CCC(=O)O)C(=O)N[C@@H](CC(=O)O)C(N)=O)C(C)C)[C@@H](C)O)C(C)C [AWAIVWGPTVSRED] (Ac-AWAIVWGPTVSRED-NH2)
TESTED ON: Sushi domains (SD1/2) protein
ENDPOINT RESULT: 552 nM

COMPOUND: CC[C@H](C)[C@@H](C(=O)N[C@H](C(=O)N[C@@H](Cc1c[nH]c2ccccc12)C(=O)NCC(=O)N1CCC[C@H]1C(=O)N[C@H](C(=O)N[C@H](C(=O)N[C@@H](CO)C(=O)N[C@@H](CCCNC(=N)N)C(=O)N[C@@H](CCC(=O)O)C(=O)N[C@@H](CC(=O)O)C(N)=O)C(C)C)[C@@H](C)O)C(C)C)N(C)C(=O)[C@H](C)NC(=O)[C@H](Cc1c[nH]c2ccccc12)NC(=O)[C@@H]1CCCN1C(C)=O [PWA(N-Me-I)VWGPTVSRED] (Ac-PWA[NMeI]VWGPTVSRED-NH2)
TESTED ON: Sushi domains (SD1/2) protein
ENDPOINT RESULT: 370 nM

COMPOUND: CC[C@H](C)[C@H](NC(=O)[C@H](C)N(C)C(=O)[C@H](Cc1c[nH]c2ccccc12)NC(=O)[C@@H]1CCCN1C(C)=O)C(=O)N[C@H](C(=O)N[C@@H](Cc1c[nH]c2ccccc12)C(=O)NCC(=O)N1CCC[C@H]1C(=O)N[C@H](C(=O)N[C@H](C(=O)N[C@@H](CO)C(=O)N[C@@H](CCCNC(=N)N)C(=O)N[C@@H](CCC(=O)O)C(=O)N[C@@H](CC(=O)O)C(N)=O)C(C)C)[C@@H](C)O)C(C)C [PW(N-Me-A)IVWGPTVSRED] (Ac-PW[NMeA]IVWGPTVSRED-NH2)
TESTED ON: Sushi domains (SD1/2) protein
ENDPOINT RESULT: 7230 nM

COMPOUND: CC[C@H](C)[C@H](NC(=O)[C@H](C)NC(=O)[C@H](Cc1c[nH]c2ccccc12)NC(=O)[C@@H]1CCCN1C(C)=O)C(=O)N[C@H](C(=O)N[C@@H](Cc1c[nH]c2ccccc12)C(=O)NCC(=O)N1CCC[C@H]1C(=O)N[C@H](C(=O)N[C@H](C(=O)N[C@@H](CO)C(=O)N(C)[C@@H](CCCNC(=N)N)C(=O)N[C@@H](CCC(=O)O)C(=O)N[C@@H](CC(=O)O)C(N)=O)C(C)C)[C@@H](C)O)C(C)C (Ac-PWAIVWGPTVS[NMeR]ED-NH2)
TESTED ON: Sushi domains (SD1/2) protein
ENDPOINT RESULT: 502 nM

COMPOUND: CC[C@H](C)[C@H](NC(=O)[C@H](C)NC(=O)[C@H](Cc1c[nH]c2ccccc12)NC(=O)[C@@H]1CCCN1C(C)=O)C(=O)N[C@H](C(=O)N[C@@H](Cc1c[nH]c2ccccc12)C(=O)NCC(=O)N[C@@H](C)C(=O)N[C@H](C(=O)N[C@H](C(=O)N[C@@H](CO)C(=O)N[C@@H](CCCNC(=N)N)C(=O)N[C@@H](CCC(=O)O)C(=O)N[C@@H](CC(=O)O)C(N)=O)C(C)C)[C@@H](C)O)C(C)C [PWAIVWGATVSRED] (Ac-PWAIVWGATVSRED-NH2)
TESTED ON: Sushi domains (SD1/2) protein
ENDPOINT RESULT: 1500 nM

====

Readings of Ki for the listed compounds
Molecular target: Sushi domains (SD1/2) protein
Test: Fluorescence polarization (FP) competition assay with AJAP-1probe, calculated Ki
Assay type: binding
Conditions: Table 16, ncAAs incorporated peptides; read-out: Ki (nM) mean ± SEM
Non-standard residues stand in square brackets, D forms with d. Residues, ends and D or L forms follow the SMILES beside them. *: point of attachment. 4Pal = N[C@@H](Cc1ccncc1)C(=O)O; Bn = c1ccc(C*)cc1

COMPOUND: COc1ccc(C[C@H](NC(=O)[C@H](Cc2c[nH]c3ccccc23)NC(=O)[C@H](Cc2c[nH]c3ccccc23)NC(=O)[C@@H](NC(=O)[C@H](CC(=O)O)NC(=O)[C@H](CO)NC(=O)[C@H](CC(=O)O)NC(=O)[C@H](CC(=O)O)NC(=O)[C@H](CCC(=O)O)NC(C)=O)C(C)C)C(=O)NCC(=O)N[C@@H](C)C(=O)N[C@@H](CC(=O)O)C(=O)N[C@H](C(=O)N[C@@H](CC(=O)O)C(N)=O)[C@@H](C)O)cc1 (Ac-EDDSDVWWY(Me)GADTD-NH2)
READOUT UNIT: nM
Ki: 109

COMPOUND: CC(=O)N[C@@H](CCC(=O)O)C(=O)N[C@@H](CC(=O)O)C(=O)N[C@@H](CC(=O)O)C(=O)N[C@@H](CO)C(=O)N[C@@H](Cc1ccncc1)C(=O)N[C@H](C(=O)N[C@@H](Cc1c[nH]c2ccccc12)C(=O)N[C@@H](Cc1c[nH]c2ccccc12)C(=O)NCC(=O)NCC(=O)N[C@@H](C)C(=O)N[C@@H](CC(=O)O)C(=O)N[C@H](C(=O)N[C@@H](CC(=O)O)C(N)=O)[C@@H](C)O)C(C)C (Ac-EDDS[4Pal]VWWGGADTD-NH2)
READOUT UNIT: nM
Ki: 424

COMPOUND: CCOc1ccc(C[C@H](NC(=O)[C@H](CO)NC(=O)[C@H](CC(=O)O)NC(=O)[C@H](CC(=O)O)NC(=O)[C@H](CCC(=O)O)NC(C)=O)C(=O)N[C@H](C(=O)N[C@@H](Cc2c[nH]c3ccccc23)C(=O)N[C@@H](Cc2c[nH]c3ccccc23)C(=O)NCC(=O)NCC(=O)N[C@@H](C)C(=O)N[C@@H](CC(=O)O)C(=O)N[C@H](C(=O)N[C@@H](CC(=O)O)C(N)=O)[C@@H](C)O)C(C)C)cc1 (Ac-EDDSY(Et)VWWGGADTD-NH2)
READOUT UNIT: nM
Ki: 46

COMPOUND: CC(=O)N[C@@H](CCC(=O)O)C(=O)N[C@@H](CC(=O)O)C(=O)N[C@@H](CC(=O)O)C(=O)N[C@@H](CO)C(=O)N[C@@H](CC(=O)O)C(=O)N[C@H](C(=O)N[C@@H](Cc1c[nH]c2ccccc12)C(=O)N[C@@H](Cc1c[nH]c2ccccc12)C(=O)N[C@@H](Cc1ccc(OCc2ccccc2)cc1)C(=O)NCC(=O)N[C@@H](C)C(=O)N[C@@H](CC(=O)O)C(=O)N[C@H](C(=O)N[C@@H](CC(=O)O)C(N)=O)[C@@H](C)O)C(C)C (Ac-EDDSDVWWY(Bn)GADTD-NH2)
READOUT UNIT: nM
Ki: 88

COMPOUND: CC(=O)N[C@@H](CCC(=O)O)C(=O)N[C@@H](CC(=O)O)C(=O)N[C@@H](CC(=O)O)C(=O)N[C@@H](CO)C(=O)N[C@@H](CC(=O)O)C(=O)N[C@H](C(=O)N[C@@H](Cc1c[nH]c2ccccc12)C(=O)N[C@@H](Cc1ccc(OCc2ccccc2)cc1)C(=O)NCC(=O)NCC(=O)N[C@@H](C)C(=O)N[C@@H](CC(=O)O)C(=O)N[C@H](C(=O)N[C@@H](CC(=O)O)C(N)=O)[C@@H](C)O)C(C)C [EDDSDVW(Obtyr)GGADTD] (Ac-EDDSDVWY(Bn)GGADTD-NH2)
READOUT UNIT: nM
Ki: 3860
